Protocol: in vitro
Cond: human
Quantity: CC50

1) C[C@H](Cn1cnc2c(N)ncnc21)OCP(=O)(O)O [PMPA, (R)-9-(2-phosphonylmethoxypropyl)adenine]
> 300 µM
2) Nc1ccn(C[C@H]2COP(=O)(O)CO2)c(=O)n1
> 302 µM
3) CC(C)(C)C(=O)OCOP(=O)(COCCn1cnc2c(N)ncnc21)OCOC(=O)C(C)(C)C
117 µM
4) Nc1ccn(C[C@@H](CO)OCP(=O)(O)O)c(=O)n1
278 µM
5) CC(C)OC(=O)OCOP(=O)(CO[C@H](C)Cn1cnc2c(N)ncnc21)OCOC(=O)OC(C)C
> 157 µM
6) CC(C)OC(=O)[C@H](C)N[P@](=O)(CO[C@H](C)Cn1cnc2c(N)ncnc21)Oc1ccccc1
> 143 µM
7) Nc1ncnc2c1ncn2CCOCP(=O)(O)O
> 366 µM
8) Nc1nc(N)c2ncn(CCOCP(=O)(O)O)c2n1
> 339 µM

Data origin, for the record: paper PMC9628899
